Heads up, these molecules all have pKi values measured for human σ1 receptor (Homo sapiens (Human), UniProt Q99720).
pKi: −log10 of the molar value.

Below are worked cases with known answers.
// returns reported pKi for input CCN1CC2(CN(CCC(C)C)C2)O[C@@H](C)C1=O [Example 37]
≤ 6.30

Can you handle CCN1CC2(CN(Cc3ccccc3)C2)OC2(CC2)C1=O [Example 13] next?
≤ 6.30

Can you handle O=C1N(c2ccccc2)CC2(CCCN(Cc3ccccc3)CC2)OC12CC2 (stereo not drawn) [Example 14] next?
> 7.00

Can you handle CC(C)CCN1CCCC2(C1)CN(c1ccccc1)C(=O)C1(CC1)O2 (stereo not drawn) [Example 8] next?
> 6.30

Can you handle CCN1C[C@]2(CCCN(Cc3ccc(C#N)cc3)CC2)O[C@@H](C)C1=O [Example 70] next?
≤ 6.30

---
// returns reported pKi for input CCN1CC2(CN(CCC(C)C)C2)O[C@H](C)C1=O [Example 36]
≤ 6.30

Can you handle CCN1CC2(CN(CCOC(C)C)C2)OC2(CC2)C1=O [Example 35] next?
≤ 6.30

Can you handle CCN1C[C@]2(CCCN(Cc3ccc(F)cc3)CC2)O[C@@H](C)C1=O [Example 66] next?
≤ 6.30

Can you handle c1ccc(CCN2CCCC3(CC2)CN(c2ccccc2)CC2(CC2)O3)cc1 (stereo not drawn) [Example 22] next?
> 7.00

###

Target: human σ1 receptor (Homo sapiens (Human), UniProt Q99720)
Sequence (Q99720 whole entry): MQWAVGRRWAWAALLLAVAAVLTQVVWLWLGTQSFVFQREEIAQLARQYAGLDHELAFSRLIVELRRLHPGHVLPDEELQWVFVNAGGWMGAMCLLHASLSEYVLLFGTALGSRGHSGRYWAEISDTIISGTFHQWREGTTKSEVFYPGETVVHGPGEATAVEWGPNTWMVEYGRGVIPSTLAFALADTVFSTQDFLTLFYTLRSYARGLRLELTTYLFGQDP
Experiment: Human σ1 receptor radioligand assay
Format: binding
Settings: transfected HEK-293 membranes, [3H](+)-pentazocine radioligand
reported property: Ki

// returns reported Ki for input CCN1CC2(CCCN(Cc3ccc(C#N)cc3)CC2)OC(C)(C)C1=O (stereo not shown) [Example 58]
≥ 500 nM

###

Heads up, these compounds all have pKi values measured for human σ1 receptor (Homo sapiens (Human)).
pKi: −log10 of the molar value.

Below are worked cases with known answers.
// returns reported pKi for input CCN1CC2(CN(CC(C)C)C2)O[C@@H](C)C1=O [Example 39]
≤ 6.30

Can you handle c1ccc(CCN2CCCC3(C2)CN(Cc2ccccc2)CC2(CC2)O3)cc1 (centres unmarked) [Example 79] next?
> 7.00

Can you handle O=C(c1ccccc1)N1CC2(CCCN(Cc3ccccc3)CC2)OC2(CC2)C1 (centres unmarked) [Example 56] next?
> 7.00

Can you handle O=C1N(Cc2ccccc2)CC2(CN(CCc3ccccc3)C2)OC12CC2 [Example 33] next?
> 7.00

---
// returns reported pKi for input CCN1C[C@@]2(CCCN(Cc3ccccc3)CC2)OC2(CC2)C1=O [Example 93]
> 7.00

###

Heads up, these molecules all have Ki values measured for human σ1 receptor (Homo sapiens (Human), UniProt Q99720).

Below are worked cases with known answers.
Report Ki for "CC(C)CN1CC2(C1)CN(C(C)C)C(=O)[C@@H](C)O2" tested on human σ1 receptor (Homo sapiens (Human), UniProt Q99720).
≥ 500 nM

Can you handle CCN1CC2(CCCN(CCC(C)C)CC2)OC2(CC2)C1=O (stereo not shown) next?
< 100 nM

Can you handle "CCN1C[C@]2(CCCN(Cc3ccc(C#N)cc3)CC2)O[C@H](C)C1=O" next?
≥ 500 nM

---
Report Ki for "CC(C)N1CC2(CN(CC(C)(C)C)C2)O[C@H](C)C1=O" tested on human σ1 receptor (Homo sapiens (Human), UniProt Q99720).
≥ 500 nM

Can you handle "CC(C)N1CC2(CN(CCC(C)(C)C)C2)O[C@@H](C)C1=O" next?
≥ 500 nM
